Source of measurements: the domain aggregation screens of Martell et al. (2025)

The reader will find reported soluble fraction (log2) values listed item by item below.
- testMethodNotes: soluble fraction after stress (log2 fold change); higher = more stays soluble; pooled small domains, quantitative proteomics
- statedConditions: stress: pH 4

macromoleculeSequence	soluble fraction (log2)
HMLAQVSDEGPIRAMVEAVMARSTQQLEDYKNGKVKLRQYFFGEVMKAAKGKANPTVINKLLDEMLPETL	0.0418
HMLLQENRKLHSKLEELQLISRAKAVLIEYLKLTEPQAHRYIEKQAMDLGLTRPQVALNILKTYE	0.21
HMRPIWVQLADDFRHRIVSGQWPPGSKIPSVRELAAETGVNPNTVQRALGALDGEGLTATERTAGRFVTT	-0.0115
HMKNNITFSEFLHEVDNGRVIKVNIQGNNITGILADGKSFNTYTPNDPSLIEKLTSKGVSISATPI	0.127
HMNQYIFVLNEKGARITSFVDNTIPKEELIALAKQDYPNAADYIYSADGDSMLDEFMRGKLYVNGQFVAA	-0.475
HMDVIDDAQAMEIALEDAGLSMDDLDRYELELHTKRSELVYSIELKSGTEEYEYDLRAADGTILKRDTDF	-0.799
HMTEYFTIESQEGERIDRYLSEELEDKSRSYIQKLIRDGHVLVDGKTVKAGYRLVAGDNIAITLPEI	-0.133
HMDAGIVVPDTYNKPLAEAVASLEGEGFRTEKKEGYSDTVAKGNVMSQNPEAGTNAERGSTVTIVISQGPQ	0.22
